Cited source for all entries: PubChem BioAssay (NCATS)

testDescription: qHTS to identify inhibitors of the type 1 interferon - major histocompatibility complex class I in skeletal muscle: primary screen against the NCATS Mechanism Interrogation Plate v5.0 (MIPE) Libary (AID 1347411); also: nearly all actives have a fitted effect of over 65% in size; also: potency is read from the fitted curve at half-maximal effect
reportedConditions: iHSKM cells + IFN-b, HiBiT-tagged MHC-I luminescence, 24 h; series mostly up to 45.8 µM
Results filed as inconclusive are left out. Active and inactive are the calls of the source. Calls follow the shape of the dose curve; as a rule, active = well fitted inhibition curve with a large enough effect; inconclusive = small, poorly fitted or top-dose-only effect; inactive = no such curve, though single readings can be large or run the other way.
outcomeMeasure: Potency

{"molecule": "Cc1ncc(OC[C@@]2(c3cccc(F)c3)C[C@H]2C(=O)Nc2ccc(F)cn2)c(C)n1", "result": "inactive"}
{"molecule": "COc1cc(C(=O)N2CC[C@@H](O)[C@@H](N)C2)cc2nc(-c3cc4ccccc4n3CC3CC3)n(C)c12", "result": "inactive"}
{"molecule": "CN[C@@H]1C[C@H]2O[C@@](C)([C@@H]1OC)n1c3ccccc3c3c4c(c5c6ccccc6n2c5c31)C(=O)NC4", "result": "829 nM (active)"}
{"molecule": "C[C@H]1CCC/C=C/C2C[C@H](O)C[C@H]2[C@H](O)/C=C/C(=O)O1 (some centres undefined)", "result": "147 nM (active)"}

----------
testDescription: Cell Viability - LYMP2-026 (AID 989);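 also: cells exposed to compound for 24 h at 37 °C; nearly all actives have a fitted effect of over 50% in size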
reportedConditions: LYMP2-026 lymphoblastoid cell viability, qHTS; series mostly up to 92.2 µM
Records with an inconclusive call do not appear. The source made the active and inactive calls. Calls come from the whole dose curve; as a rule, active = well fitted cell-killing curve with a large enough effect; inconclusive = small, poorly fitted or top-dose-only effect; inactive = flat fitted curve, though single readings scatter.

{"compoundSmiles": "O=Cc1ccccc1", "outcome": "inactive"}
{"compoundSmiles": "Cc1ccccc1O", "outcome": "inactive"}
{"compoundSmiles": "CC(=O)/C=C/c1ccccc1", "outcome": "inactive"}
{"compoundSmiles": "CCOC(=O)c1ccccc1N", "outcome": "inactive"}
{"compoundSmiles": "COC(=O)c1ccccc1C(=O)OC", "outcome": "inactive"}
{"compoundSmiles": "Oc1c(Cl)c(Cl)c(Cl)c(Cl)c1Cl", "outcome": "inactive"}
{"compoundSmiles": "c1ccc(Nc2ccc3ccccc3c2)cc1", "outcome": "inactive"}
{"compoundSmiles": "Oc1ccccc1Cl", "outcome": "inactive"}

----------
testDescription: Primary qHTS to identify inhibitors of SARS-CoV-2 cell entry (AID 1645846); also: nearly all actives have a fitted effect of over 45% in size
reportedConditions: SARS-CoV-2 pseudovirus cell entry assay, luminescence; series mostly up to 57.1 µM
Records with an inconclusive call do not appear. Activity calls are given as the source filed them. Calls follow the shape of the full dose curve.
Labels: Yes = active, No = inactive

{"compound": "c1ccc(CNc2nc(NCc3ccccc3)c3ccccc3n2)cc1", "cat": "Yes"}
{"compound": "CO[C@@H]1[C@@H](OC2OC(C)C(OC3CC(C)(O)C(OC(=O)CC(C)C)C(C)O3)C(N(C)C)C2O)[C@@H](CC=O)C[C@@H](C)C(=O)/C=C\\C2O[C@H]2C[C@@H](C)OC(=O)C[C@H]1OC(C)=O (stereo partly drawn)", "cat": "Yes"}
{"compound": "C=C(C)[C@@H]1CC[C@]2(C)CC[C@]3(C)[C@H](CC[C@@H]4[C@@]5(C)CC[C@H](O)C(C)(C)[C@H]5CC[C@]43C)[C@@H]12", "cat": "No"}

----------
measurementTarget: Nucleoprotein (Lymphocytic choriomeningitis virus (strain Armstrong)) (UniProt P09992)
Sequence (P09992 whole entry, looked up): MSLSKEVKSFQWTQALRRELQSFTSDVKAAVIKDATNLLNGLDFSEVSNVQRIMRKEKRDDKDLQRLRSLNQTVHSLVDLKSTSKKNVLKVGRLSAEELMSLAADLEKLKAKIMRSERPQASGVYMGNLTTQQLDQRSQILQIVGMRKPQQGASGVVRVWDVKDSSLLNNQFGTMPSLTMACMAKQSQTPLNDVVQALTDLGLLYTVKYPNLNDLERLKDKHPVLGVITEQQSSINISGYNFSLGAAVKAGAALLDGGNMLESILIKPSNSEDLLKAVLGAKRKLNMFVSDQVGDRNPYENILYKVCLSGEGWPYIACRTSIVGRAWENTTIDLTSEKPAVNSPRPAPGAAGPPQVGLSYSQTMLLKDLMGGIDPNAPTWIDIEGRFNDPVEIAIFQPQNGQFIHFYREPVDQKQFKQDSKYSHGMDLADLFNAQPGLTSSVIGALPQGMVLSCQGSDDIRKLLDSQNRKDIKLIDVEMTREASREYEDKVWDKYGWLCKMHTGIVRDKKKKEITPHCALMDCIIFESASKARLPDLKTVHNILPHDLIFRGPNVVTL
testDescription: qHTS for Inhibitors of the Functional Ribonucleoprotein Complex (vRNP) of Lymphocytic Choriomeningitis Arenaviruses (LCMV): LCMV Primary Screen - GLuc reporter signal (AID 1347086); also: nearly all actives have a fitted effect of over 70% in size
reportedConditions: LCMV minigenome vRNP cell assay, Gaussia luciferase reporter; series mostly up to 57.5 µM
Inconclusive results are not listed. Activity calls are given as the source filed them. Calls follow the shape of the full dose curve.
Labels: active, inactive

{"compound": "Cc1coc2c1C(=O)C(=O)c1c-2ccc2c(C)cccc12", "measurementTarget": "Nucleoprotein (Lymphocytic choriomeningitis virus (strain Armstrong)) (UniProt P09992)", "cat": "inactive"}
{"compound": "O=C1N[C@@H](Cc2c[nH]c3ccccc23)C(=O)N[C@H]1Cc1c[nH]c2ccccc12", "measurementTarget": "Nucleoprotein (Lymphocytic choriomeningitis virus (strain Armstrong)) (UniProt P09992)", "cat": "inactive"}
{"compound": "Cc1ccc(S(=O)(=O)Nc2nc3ccccc3nc2Nc2ccc3nsnc3c2)cc1", "measurementTarget": "Nucleoprotein (Lymphocytic choriomeningitis virus (strain Armstrong)) (UniProt P09992)", "cat": "active"}
{"compound": "CCOC(=O)[C@H]1O[C@H]1C(=O)N[C@@H](CC(C)C)C(=O)NCCC(C)C", "measurementTarget": "Nucleoprotein (Lymphocytic choriomeningitis virus (strain Armstrong)) (UniProt P09992)", "cat": "inactive"}
{"compound": "O=CC(O)C1OC(=O)C(O)C1O (stereo unspecified)", "measurementTarget": "Nucleoprotein (Lymphocytic choriomeningitis virus (strain Armstrong)) (UniProt P09992)", "cat": "inactive"}
{"compound": "C/C=C(\\C)C(=O)OC(C)(C)[C@H]1Cc2cc3ccc(=O)oc3cc2O1", "measurementTarget": "Nucleoprotein (Lymphocytic choriomeningitis virus (strain Armstrong)) (UniProt P09992)", "cat": "inactive"}
{"compound": "COc1cccc(OC)c1OCCNCC1CSc2ccccc2O1 (stereo unspecified)", "measurementTarget": "Nucleoprotein (Lymphocytic choriomeningitis virus (strain Armstrong)) (UniProt P09992)", "cat": "inactive"}
{"compound": "Nc1nc(N)c2nc(CNc3ccc(C(=O)NC(CCC(=O)O)C(=O)O)cc3)cnc2n1 (stereo unspecified)", "measurementTarget": "Nucleoprotein (Lymphocytic choriomeningitis virus (strain Armstrong)) (UniProt P09992)", "cat": "inactive"}
{"compound": "C[C@H]1O[C@H](O[C@H]2[C@H](O)[C@@H](O)[C@@H](O[C@H]3[C@H](O)[C@@H](O)C(O)O[C@H]3CO)O[C@H]2CO)[C@H](O)[C@@H](O)[C@H]1N[C@H]1C=C(CO)[C@@H](O)[C@H](O)[C@@H]1O (stereo partly specified)", "measurementTarget": "Nucleoprotein (Lymphocytic choriomeningitis virus (strain Armstrong)) (UniProt P09992)", "cat": "inactive"}
{"compound": "CC12CCC(=O)C=C1CCC1C2CCC2(C)C(C(=O)CO)CC(O)C12 (stereo unspecified)", "measurementTarget": "Nucleoprotein (Lymphocytic choriomeningitis virus (strain Armstrong)) (UniProt P09992)", "cat": "inactive"}
{"compound": "Nc1ncnc2c1ncn2C1CCCC1", "measurementTarget": "Nucleoprotein (Lymphocytic choriomeningitis virus (strain Armstrong)) (UniProt P09992)", "cat": "inactive"}

----------
Tested on: PA-1
testDescription: Primary qHTS to identify gynecologic anti-cancer compounds using libraries of approved drugs and bioactive compounds (AID 1345084); also: nearly all actives have a fitted effect of over 55% in size
reportedConditions: Gynecologic cancer cell panel viability, ATPlite luminescence, 48 h; series mostly up to 57.5 µM
Results filed as inconclusive are left out. Calls of active or inactive are those of the source. The call rests on the fitted dose curve; in most records, active means well fitted cell-killing curve with a large enough effect; inconclusive means small, poorly fitted or top-dose-only effect, or effect the other way; inactive means flat fitted curve, though single readings scatter.
Labels: true (1) = active, false (0) = inactive

{"compoundSmiles": "CCCCCn1cc(C(=O)C2C(C)(C)C2(C)C)c2ccccc21", "measurementTarget": "PA-1", "cat": "false (0)"}
{"compoundSmiles": "C=CC/C=C\\C/C=C\\CCCCCCCc1cc(O)cc(O)c1", "measurementTarget": "PA-1", "cat": "false (0)"}
{"compoundSmiles": "c1ccc([C@@H]2C[C@H]2NC2CCNCC2)cc1", "measurementTarget": "PA-1", "cat": "false (0)"}
{"compoundSmiles": "O=S(=O)(c1ccccc1F)N1CCOc2c(N3CCNCC3)cccc21", "measurementTarget": "PA-1", "cat": "false (0)"}
{"compoundSmiles": "CC(C)(O)/C=C/C(=O)[C@](C)(O)[C@H]1[C@H](O)C[C@@]2(C)[C@@H]3CC=C4[C@@H](C[C@H](O)C(=O)C4(C)C)[C@]3(C)C(=O)C[C@]12C", "measurementTarget": "PA-1", "cat": "true (1)"}

----------
testDescription: qHTS for Inhibitors of the Functional Ribonucleoprotein Complex (vRNP) of Lassa (LASV) Arenavirus: Viability assay - alamar blue signal for LASV Primary Screen (AID 1347083); also: nearly all actives have a fitted effect of over 80% in size
reportedConditions: cell viability, alamar blue fluorescence (LASV minigenome counter-screen); series mostly up to 57.5 µM
Results filed as inconclusive are left out. Activity calls are given as the source filed them. Calls come from the whole dose curve; tested in HEK293 reporter line.
Labels: active, inactive

{"molecule": "COc1cc(C2C(c3ccccc3)C(c3cc(OC)cc(=O)o3)C2c2ccccc2)oc(=O)c1 (stereo not given)", "cat": "inactive"}
{"molecule": "CCCCCN=C(N)NN=Cc1c[nH]c2ccc(OC)cc12", "cat": "active"}
{"molecule": "CCCCCCCCCCCCCCCC(=O)NCCc1c[nH]c2ccccc12", "cat": "inactive"}
{"molecule": "CCc1ccc(C(=O)Nc2cc(CN3CCN(C)CC3)cc(C(F)(F)F)c2)cc1C#Cc1cnc2ccnn2c1", "cat": "active"}
{"molecule": "COc1cc(/C=C2/C(=O)Nc3ccccc32)cc(OC)c1O", "cat": "inactive"}
{"molecule": "O=C(Cc1ccc(-c2ccc(OCCN3CCOCC3)cc2)cn1)NCc1ccccc1", "cat": "active"}
{"molecule": "COc1c2ccoc2c(OC[C@@H](O)C(C)(C)O)c2oc(=O)ccc12", "cat": "inactive"}
{"molecule": "C[C@@H]1CC(=O)[C@H]2CC(CO)=CCC[C@@H]2[C@@]1(C)CC/C(=C/CO)CO", "cat": "inactive"}
{"molecule": "CC(=O)[C@H]1CCC2C3CC=C4C[C@@H](OS(=O)(=O)O)CC[C@]4(C)C3CC[C@@]21C (stereo not given in full)", "cat": "inactive"}
{"molecule": "COc1c2ccoc2nc2c(OC)c(OCC(OC(C)=O)C(C)(C)O)ccc12 (stereo not given)", "cat": "inactive"}
{"molecule": "CCc1cc(C(C)=NOCc2ccc(C3CCCCC3)c(C(F)(F)F)c2)ccc1CN1CC(C(=O)O)C1", "cat": "inactive"}
{"molecule": "COc1cccc2c1C(=O)c1c(O)c3c(c(O)c1C2=O)C[C@@](O)(C(=O)CO)C[C@H]3O[C@H]1C[C@H](N)[C@H](O)[C@H](C)O1", "cat": "active"}
{"molecule": "CN[C@@H](Cc1c[nH]c2ccccc12)C(=O)O", "cat": "inactive"}
{"molecule": "N=C1SC(=Cc2ccc(-c3ccc4c(c3)C(=O)NC4=O)o2)C(=O)N1c1ccc(Br)cc1", "cat": "inactive"}
{"molecule": "CCc1ccc(OCc2ccccc2C(=O)Nc2ccc3nc(C)cc(N)c3c2)cc1", "cat": "active"}
{"molecule": "O=c1ccc2cc3ccoc3cc2o1", "cat": "inactive"}
{"molecule": "CCCCCCCCCCOS(=O)(=O)O", "cat": "inactive"}
{"molecule": "N#C/C(=C\\c1ccc(O)c(O)c1)C(=O)NCc1ccccc1", "cat": "inactive"}
{"molecule": "C[C@@H]1[C@H](C)CC[C@]2(C(=O)O)CC[C@]3(C)C(=CC[C@@H]4[C@@]5(C)C[C@@H](O)[C@H](O)[C@@](C)(CO)[C@H]5CC[C@]43C)[C@@H]12", "cat": "inactive"}
{"molecule": "COC(=O)[C@H]1[C@@H](OC(=O)c2ccccc2)C[C@@H]2CC[C@H]1N2C", "cat": "inactive"}
